Where do the numbers come from? From paper PMC2735267.

target: β4*-nAChR (Mus musculus, UniProt Q8R493+Q8R4G9); test: biochemical; format: binding, C57BL/6J mice; settings: read-out: [125I]epibatidine (β2 -/-) Ki; inferior colliculi, β2-/- mice; 200 pM ligand
Sequence (Q8R493 21-495): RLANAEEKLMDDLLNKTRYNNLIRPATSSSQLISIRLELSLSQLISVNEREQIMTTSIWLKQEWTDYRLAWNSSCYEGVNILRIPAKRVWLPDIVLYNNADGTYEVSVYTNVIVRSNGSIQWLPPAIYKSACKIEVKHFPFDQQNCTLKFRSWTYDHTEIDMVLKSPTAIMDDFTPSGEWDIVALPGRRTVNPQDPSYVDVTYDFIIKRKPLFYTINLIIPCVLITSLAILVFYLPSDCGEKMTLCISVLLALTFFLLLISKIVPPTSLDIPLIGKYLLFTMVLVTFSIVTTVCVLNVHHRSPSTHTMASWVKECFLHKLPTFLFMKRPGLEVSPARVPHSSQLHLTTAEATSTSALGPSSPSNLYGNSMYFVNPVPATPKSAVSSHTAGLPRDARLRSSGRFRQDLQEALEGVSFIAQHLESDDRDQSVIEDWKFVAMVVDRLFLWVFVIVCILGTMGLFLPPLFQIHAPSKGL
Sequence (Q8R4G9 26-499): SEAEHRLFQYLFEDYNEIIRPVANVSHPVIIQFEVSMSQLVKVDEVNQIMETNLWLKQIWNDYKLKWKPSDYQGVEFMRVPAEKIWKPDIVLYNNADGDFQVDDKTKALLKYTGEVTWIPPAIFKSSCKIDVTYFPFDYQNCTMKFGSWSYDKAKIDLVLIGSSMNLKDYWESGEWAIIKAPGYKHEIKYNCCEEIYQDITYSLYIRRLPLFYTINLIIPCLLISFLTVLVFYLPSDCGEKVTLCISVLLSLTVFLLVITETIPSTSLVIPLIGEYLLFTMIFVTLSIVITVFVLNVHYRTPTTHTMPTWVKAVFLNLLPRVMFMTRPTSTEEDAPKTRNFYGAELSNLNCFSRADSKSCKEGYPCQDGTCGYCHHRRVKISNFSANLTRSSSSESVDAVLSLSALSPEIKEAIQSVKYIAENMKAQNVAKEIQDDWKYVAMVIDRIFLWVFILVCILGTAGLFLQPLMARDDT
Value type: pKi
pKi is defined as minus the log10 of a concentration measured in mol/L.

Item O=c1c(I)ccc2n1C[C@@H]1CNC[C@H]2C1 with β4*-nAChR (Mus musculus, UniProt Q8R493+Q8R4G9) - pKi?
9.60

---

target: α7-nAChR (Mus musculus, UniProt P49582); experiment: biochemical; format: binding, C57BL/6J mice; settings: read-out: [125I]α-bungarotoxin (WT) Ki; […]; 0.5 nM ligand; one-site model
Sequence (P49582 23-502): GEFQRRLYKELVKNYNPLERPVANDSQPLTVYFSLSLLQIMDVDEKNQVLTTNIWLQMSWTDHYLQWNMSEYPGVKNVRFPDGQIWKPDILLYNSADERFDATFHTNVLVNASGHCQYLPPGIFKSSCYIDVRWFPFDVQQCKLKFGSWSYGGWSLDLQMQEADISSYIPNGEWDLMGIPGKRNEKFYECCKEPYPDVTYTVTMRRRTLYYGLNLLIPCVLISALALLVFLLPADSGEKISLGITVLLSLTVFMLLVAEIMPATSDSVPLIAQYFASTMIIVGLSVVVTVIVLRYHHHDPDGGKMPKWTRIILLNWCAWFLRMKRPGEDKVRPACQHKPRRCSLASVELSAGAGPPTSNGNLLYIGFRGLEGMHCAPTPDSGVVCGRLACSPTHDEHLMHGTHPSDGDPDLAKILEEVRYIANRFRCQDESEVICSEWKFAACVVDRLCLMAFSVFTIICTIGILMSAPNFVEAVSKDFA
Value type: Ki (nM)
Kindly provide the numeric value in nM only, without the unit symbol.

Sample O=c1c(I)ccc2n1C[C@@H]1CNC[C@H]2C1 — what was its Ki?
2.2

---

biological target: β4*-nAChR (Mus musculus, UniProt Q8R493+Q8R4G9); assay: biochemical; type: binding, C57BL/6J mice
Value type: Ki (nM)
Kindly provide the numeric value in nM only, without the unit symbol.

Sample O=c1cccc2n1C[C@@H]1CNC[C@H]2C1 [cytisine, reference compound] — what was its Ki?
9.7
